Attribution: ChEMBL document CHEMBL1201862

# Test system: NCI-H226
# Assay Overview: NCI tumour cell line growth inhibition, 48 h
Activity calls are given as the source filed them. Cut-off read from the data, not from the text of the source: active = GI50 up to about 1.1 µM and inactive = higher.
Give your call using only these classes: active, inactive

Would you please look over these solved cases?
Compound	Classification
COc1cc2cc(C(=O)N3C[C@H](CCl)c4c3cc(O)c3ccccc43)[nH]c2c(OC)c1OC	active
CC(C)(C)n1c(=O)[nH]c(=O)n1C(C)(C)C	inactive

Query: What was the test verdict on O=C1NC(=O)C(COCc2ccccc2)C2=C1SCCC2 (centres undefined) ?
Response: inactive

Query: What was the test verdict on Cc1ccc2[nH]c3c(c(=O)n(C)c(=O)n3C)c2c1 ?
Response: inactive

Query: What was the test verdict on COc1cc(O)c(C(=O)CC(C)=O)c(OC)c1 ?
Response: inactive
